- Target system: sDSP S507F (Homo sapiens, UniProt P15924, S507F)
- Construct: gene DSP; N-terminal fragment, residues 178-627
- Sequence (P15924 whole entry S507F, the tested form may be a part): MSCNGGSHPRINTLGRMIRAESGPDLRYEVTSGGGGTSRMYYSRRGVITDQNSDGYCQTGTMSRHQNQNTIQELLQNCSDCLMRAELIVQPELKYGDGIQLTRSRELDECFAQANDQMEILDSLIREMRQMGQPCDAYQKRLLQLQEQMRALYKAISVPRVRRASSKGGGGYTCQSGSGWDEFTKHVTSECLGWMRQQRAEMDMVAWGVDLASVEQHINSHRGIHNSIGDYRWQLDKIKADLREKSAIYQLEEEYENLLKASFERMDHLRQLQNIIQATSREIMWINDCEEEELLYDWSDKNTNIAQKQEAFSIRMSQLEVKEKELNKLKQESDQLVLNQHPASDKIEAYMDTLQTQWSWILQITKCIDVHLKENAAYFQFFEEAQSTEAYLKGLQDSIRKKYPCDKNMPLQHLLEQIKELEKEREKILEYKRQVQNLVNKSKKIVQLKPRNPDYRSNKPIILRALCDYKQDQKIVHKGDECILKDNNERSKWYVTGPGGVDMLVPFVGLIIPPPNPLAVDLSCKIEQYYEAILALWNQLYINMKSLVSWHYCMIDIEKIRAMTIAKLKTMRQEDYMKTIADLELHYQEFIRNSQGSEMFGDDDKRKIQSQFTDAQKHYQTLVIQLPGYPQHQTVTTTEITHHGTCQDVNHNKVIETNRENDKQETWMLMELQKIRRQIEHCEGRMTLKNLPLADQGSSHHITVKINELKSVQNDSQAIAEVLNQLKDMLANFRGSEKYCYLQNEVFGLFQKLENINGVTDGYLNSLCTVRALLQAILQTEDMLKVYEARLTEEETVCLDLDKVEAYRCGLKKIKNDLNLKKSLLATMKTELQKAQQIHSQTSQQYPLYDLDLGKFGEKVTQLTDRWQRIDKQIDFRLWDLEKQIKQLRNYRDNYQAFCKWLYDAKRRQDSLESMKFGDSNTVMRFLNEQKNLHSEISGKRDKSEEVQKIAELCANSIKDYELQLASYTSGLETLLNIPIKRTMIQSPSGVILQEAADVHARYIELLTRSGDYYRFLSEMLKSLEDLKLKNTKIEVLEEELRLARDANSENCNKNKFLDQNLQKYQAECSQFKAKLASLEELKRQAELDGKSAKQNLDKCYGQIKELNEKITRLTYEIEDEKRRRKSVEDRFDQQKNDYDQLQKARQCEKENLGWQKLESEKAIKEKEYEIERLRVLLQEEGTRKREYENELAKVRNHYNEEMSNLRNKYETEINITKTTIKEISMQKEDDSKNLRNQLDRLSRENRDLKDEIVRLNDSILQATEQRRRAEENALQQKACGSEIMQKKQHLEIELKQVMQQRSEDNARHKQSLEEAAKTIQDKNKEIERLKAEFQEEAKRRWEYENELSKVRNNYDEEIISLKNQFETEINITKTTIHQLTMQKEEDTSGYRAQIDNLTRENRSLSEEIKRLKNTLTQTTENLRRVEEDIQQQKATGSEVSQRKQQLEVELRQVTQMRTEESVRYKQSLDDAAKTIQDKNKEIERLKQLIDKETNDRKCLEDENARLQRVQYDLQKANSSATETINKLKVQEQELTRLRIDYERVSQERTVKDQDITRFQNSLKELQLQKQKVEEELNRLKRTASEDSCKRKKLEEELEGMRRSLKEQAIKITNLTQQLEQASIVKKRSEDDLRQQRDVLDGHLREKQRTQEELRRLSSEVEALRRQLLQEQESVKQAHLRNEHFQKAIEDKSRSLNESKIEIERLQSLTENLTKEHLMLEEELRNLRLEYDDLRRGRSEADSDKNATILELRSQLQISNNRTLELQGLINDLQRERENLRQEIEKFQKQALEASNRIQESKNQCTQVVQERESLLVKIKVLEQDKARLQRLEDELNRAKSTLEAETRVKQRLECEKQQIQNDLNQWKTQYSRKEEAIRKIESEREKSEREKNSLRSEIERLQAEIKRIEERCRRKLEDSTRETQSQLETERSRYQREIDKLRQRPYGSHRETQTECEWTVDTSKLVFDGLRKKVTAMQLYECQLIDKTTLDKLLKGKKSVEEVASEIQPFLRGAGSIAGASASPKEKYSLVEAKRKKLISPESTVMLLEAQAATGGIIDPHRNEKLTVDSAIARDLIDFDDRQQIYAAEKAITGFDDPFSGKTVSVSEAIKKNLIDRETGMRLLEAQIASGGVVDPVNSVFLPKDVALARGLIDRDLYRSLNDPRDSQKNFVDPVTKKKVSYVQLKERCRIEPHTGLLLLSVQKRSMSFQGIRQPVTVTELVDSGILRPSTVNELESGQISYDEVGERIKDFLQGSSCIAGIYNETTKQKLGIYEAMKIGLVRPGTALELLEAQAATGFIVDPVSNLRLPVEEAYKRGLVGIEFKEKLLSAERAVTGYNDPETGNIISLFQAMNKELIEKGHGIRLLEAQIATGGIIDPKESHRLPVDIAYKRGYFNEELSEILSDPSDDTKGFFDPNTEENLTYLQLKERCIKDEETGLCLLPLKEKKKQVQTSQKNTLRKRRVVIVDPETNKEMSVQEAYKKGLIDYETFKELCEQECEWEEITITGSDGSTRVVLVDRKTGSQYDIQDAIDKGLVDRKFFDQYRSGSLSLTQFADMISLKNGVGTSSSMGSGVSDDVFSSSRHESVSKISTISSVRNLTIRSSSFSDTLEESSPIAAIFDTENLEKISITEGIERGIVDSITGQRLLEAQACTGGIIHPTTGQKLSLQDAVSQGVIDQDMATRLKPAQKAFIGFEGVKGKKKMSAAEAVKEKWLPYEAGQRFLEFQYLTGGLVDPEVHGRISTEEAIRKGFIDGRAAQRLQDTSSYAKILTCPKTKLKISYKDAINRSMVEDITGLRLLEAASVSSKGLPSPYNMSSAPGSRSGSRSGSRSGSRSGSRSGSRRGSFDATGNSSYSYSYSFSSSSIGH
- Assay summary: biochemical
- Set-up: FITC-sDSP degradation by calpain (1:20), fluorescence polarization after 60 min, per cent of calpain-only control
- Condition: degradation rate of DSP S507F by calpain; read-out: % of control remaining
Counter-ions that a name gives are not always drawn.
Experimental readout: remaining activity at 500 µM (%)

>>> df
                                   compound                             target_system          experimental_readout  quantitative_result
0  Cn1cc(-c2ccc(F)c(C(F)(F)F)c2)nc1C1CCN(c2ncnc3[nH]ncc23)CC1 [LY2584702]  sDSP S507F (Homo sapiens, UniProt P15924, S507F)  remaining activity at 500 µM                   84
1  COc1ccc(-c2cc(=O)c3c(O)cc(O)cc3o2)cc1O [Diosmetin]  sDSP S507F (Homo sapiens, UniProt P15924, S507F)  remaining activity at 500 µM                    0
2  CCCCc1oc2ccc(NS(C)(=O)=O)cc2c1C(=O)c1ccc(OCCCN(CCCC)CCCC)cc1 [Dronedarone HCl]  sDSP S507F (Homo sapiens, UniProt P15924, S507F)  remaining activity at 500 µM                   25
3  C=C(c1ccc(C(=O)O)cc1)c1cc2c(cc1C)C(C)(C)CCC2(C)C [Bexarotene]  sDSP S507F (Homo sapiens, UniProt P15924, S507F)  remaining activity at 500 µM                    4
4             CCCCCCCCCCCCOS(=O)(=O)O [SDS]  sDSP S507F (Homo sapiens, UniProt P15924, S507F)  remaining activity at 500 µM                  -30

* * *

# remaining activity at 500 µM per record follows
- Target system: sDSP (DSP178–627) (Homo sapiens, UniProt P15924, S442F)
- Construct: gene DSP; N-terminal spectrin repeat/SH3 fragment, residues 178-627; pGEX-1 GST fusion cut with thrombin, E. coli BL21(DE3); fluorescein-5-maleimide label on exposed cysteines (C405, C524)
- Sequence (P15924 178-627 S442F): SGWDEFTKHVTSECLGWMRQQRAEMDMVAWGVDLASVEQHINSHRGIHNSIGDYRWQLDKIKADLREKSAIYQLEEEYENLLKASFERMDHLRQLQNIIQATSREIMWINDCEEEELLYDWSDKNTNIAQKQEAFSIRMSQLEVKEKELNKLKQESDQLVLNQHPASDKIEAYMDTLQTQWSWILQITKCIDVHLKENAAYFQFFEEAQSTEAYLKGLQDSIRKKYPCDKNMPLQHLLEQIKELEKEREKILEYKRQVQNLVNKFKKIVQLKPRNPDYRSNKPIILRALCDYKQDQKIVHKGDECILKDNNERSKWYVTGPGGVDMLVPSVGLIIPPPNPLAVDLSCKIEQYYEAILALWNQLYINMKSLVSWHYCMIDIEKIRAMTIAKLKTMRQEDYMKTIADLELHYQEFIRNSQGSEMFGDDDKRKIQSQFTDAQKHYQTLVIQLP
- Assay summary: biochemical
- Set-up: FITC-sDSP degradation by calpain (1:20), fluorescence polarization after 60 min, per cent of calpain-only control
- Condition: degradation rate of DSP S442F by calpain; read-out: % of control remaining
- Protocol: Fluorescence Polarization (FP) assays were conducted in […] format using a BioTek Synergy H4 plate reader with polarization capacity (Agilent; Savage, MD, USA). All samples were run at 25 °C using PBS pH 7.4, 1 mM DTT, 10 mM CaCl2, 5% DMSO, and […] FITC- DSP178–627, with 500 μM of each drug. […] Samples were excited at 485 nm, and polarization was monitored at 528 nm. […]
Counter-ions that a name gives are not always drawn.

Compound	Target system	Readout unit	remaining activity at 500 µM
CC(C)=CCC/C(C)=C/CC/C(C)=C/CSc1ccccc1C(=O)O	sDSP (DSP178–627) (Homo sapiens, UniProt P15924, S442F)	%	29
CN1CCN(C2=Nc3ccccc3Oc3ccc(Cl)cc32)CC1 [Loxipine Succinate]	sDSP (DSP178–627) (Homo sapiens, UniProt P15924, S442F)	%	101
Cn1cc(-c2ccc(F)c(C(F)(F)F)c2)nc1C1CCN(c2ncnc3[nH]ncc23)CC1	sDSP (DSP178–627) (Homo sapiens, UniProt P15924, S442F)	%	-40
CCCCCCCCCCCCCCCC(=O)NCCO [palmitoylethanolamide]	sDSP (DSP178–627) (Homo sapiens, UniProt P15924, S442F)	%	-3
CCN(CC)CC#CCOC(=O)C(O)(c1ccccc1)C1CCCCC1 (stereo not drawn) [Oxybutynin chloride]	sDSP (DSP178–627) (Homo sapiens, UniProt P15924, S442F)	%	-5
COc1ccc(-c2cc(=O)c3c(O)cc(O)cc3o2)cc1O	sDSP (DSP178–627) (Homo sapiens, UniProt P15924, S442F)	%	73
C=C(c1ccc(C(=O)O)cc1)c1cc2c(cc1C)C(C)(C)CCC2(C)C	sDSP (DSP178–627) (Homo sapiens, UniProt P15924, S442F)	%	84
Cc1ccc(NC(=O)c2ccc(CN3CCN(C)CC3)cc2)cc1Nc1nccc(-c2cccnc2)n1	sDSP (DSP178–627) (Homo sapiens, UniProt P15924, S442F)	%	62
CCCCCCCCc1ccc(CCC(N)(CO)CO)cc1	sDSP (DSP178–627) (Homo sapiens, UniProt P15924, S442F)	%	70
CC(=O)O[C@H]1C(=O)[C@@]2(C)[C@H]([C@H](OC(=O)c3ccccc3)[C@]3(O)C[C@H](OC(=O)[C@H](O)[C@@H](NC(=O)c4ccccc4)c4ccccc4)C(C)=C1C3(C)C)[C@]1(OC(C)=O)CO[C@@H]1C[C@@H]2O	sDSP (DSP178–627) (Homo sapiens, UniProt P15924, S442F)	%	87
CCCCCCCCCCCCOS(=O)(=O)O	sDSP (DSP178–627) (Homo sapiens, UniProt P15924, S442F)	%	21
CCCCc1oc2ccc(NS(C)(=O)=O)cc2c1C(=O)c1ccc(OCCCN(CCCC)CCCC)cc1 [Dronedarone HCl]	sDSP (DSP178–627) (Homo sapiens, UniProt P15924, S442F)	%	0
CNC(=O)c1c(F)cccc1Nc1nc(Nc2cc3c(cc2OC)CCN3C(=O)CN(C)C)nc2[nH]ccc12 [GSK1838705A]	sDSP (DSP178–627) (Homo sapiens, UniProt P15924, S442F)	%	23
CCCCc1ncc(/C=C(\Cc2cccs2)C(=O)O)n1Cc1ccc(C(=O)O)cc1 [eprosarten mesylate]	sDSP (DSP178–627) (Homo sapiens, UniProt P15924, S442F)	%	26
NC1(Cc2ccc(Cl)cc2)CCN(c2ncnc3[nH]ccc23)CC1	sDSP (DSP178–627) (Homo sapiens, UniProt P15924, S442F)	%	86
CC/C=C\C/C=C\C/C=C\C/C=C\C/C=C\C/C=C\CCC(=O)O	sDSP (DSP178–627) (Homo sapiens, UniProt P15924, S442F)	%	-19
O=C(NC1CCN(CCCCC2(C(=O)NCC(F)(F)F)c3ccccc3-c3ccccc32)CC1)c1ccccc1-c1ccc(C(F)(F)F)cc1 [Lomitapide]	sDSP (DSP178–627) (Homo sapiens, UniProt P15924, S442F)	%	62
Fc1ccc([C@@H]2CCNC[C@H]2COc2ccc3c(c2)OCO3)cc1	sDSP (DSP178–627) (Homo sapiens, UniProt P15924, S442F)	%	-3
